ASSAY_PROCEDURE: in vitro
TEST_PARAMETERS: human, hela cells, % viability
ENDPOINT_NAME: viability at 28.5 h, 10 µM (%)
Provide only the numeric value, understood in %.

I'd like to know its viability at 28.5 h, 10 µM. The compound in question is Cc1ccc(C(=O)N[C@H]2CO[C@H]3[C@@H]2OC[C@@H]3n2cc(-c3ccccc3)nn2)cc1
81.4

What viability at 28.5 h, 10 µM value was documented for this compound, CC(C)(C)OC(=O)N1CCC(CNS(=O)(=O)c2cccs2)CC1 ?
100

Query (compound): O=C(c1nc[nH]n1)N1CCN(c2nccc(CCC(F)(F)F)n2)CC1 ; field requested: viability at 28.5 h, 10 µM
106

Reported viability at 28.5 h, 10 µM for O=C(c1[nH]nc2c1CCCC2)N1CCn2cc(C(F)(F)F)nc2C1 : what is it?
96.7

I would be grateful if you could share the reported viability at 28.5 h, 10 µM for CCc1ccccc1NC(=O)Cc1ccc(OC)cc1 .
85.7

# input compound: NC(=O)c1cc(-c2ccccc2)sc1NC(=O)C(Cc1ccccc1)N1C(=O)c2ccccc2C1=O (stereo not drawn) ; wanted: its viability at 28.5 h, 10 µM
104

Using the record for CN1CC(=O)N(c2ccc(Cl)cc2Cl)C1=O , report its viability at 28.5 h, 10 µM.
93

May I ask what viability at 28.5 h, 10 µM has been recorded for C=C(C)Cn1c(SCC(=O)O)nnc1-c1ccc([N+](=O)[O-])cc1 ?
89.8

// viability at 28.5 h, 10 µM lookup, key: COC(=O)CO[C@@H]1CO[C@H]2[C@@H]1OC[C@@H]2NC(=S)Nc1ccccc1
88.3

// data source = paper PMC12040169
